Numbers sourced from ChEMBL document CHEMBL1140143.

- Tested Target: UniProt P15304
- Protocol: Inhibition of HSL in Wistar rat isolated fat cells by spectrophotometric assay
Quantity Name: pIC50
Scale: negative log10 of molar concentration, which is what pIC50 denotes.

Worked cases, answers included:
CN(C(=O)n1nc(-c2ccc(Cl)cc2)nc1SCC(F)(F)F)c1ccccc1    8.52
CCCCCCSc1nc(-c2ccc(Cl)cc2)nn1C(=O)N1CCOCC1    6.05

In: Dear colleague, I am looking for the recorded pIC50 of the following compound: Cc1c(CC(C)C)c(=O)on1C(=O)N1CCCCC1
Out: 8.30

In: Dear colleague, I am looking for the recorded pIC50 of the following compound: Cc1c(C(C)C)c(=O)on1C(=O)N1CC(C)CC(C)C1 (stereo unspecified)
Out: 6.49

In: Dear colleague, I am looking for the recorded pIC50 of the following compound: Cc1c(C(C)C)c(=O)on1C(=O)N1CCN(Cc2ccccc2)CC1
Out: 7.19

In: Dear colleague, I am looking for the recorded pIC50 of the following compound: Cc1c(C(C)C)c(=O)on1C(=O)NCC1CCCCC1
Out: 7.14

In: Dear colleague, I am looking for the recorded pIC50 of the following compound: Cc1c(C(C)C)c(=O)on1C(=O)N1CCN(c2ccccc2)CC1
Out: 8.22

In: Dear colleague, I am looking for the recorded pIC50 of the following compound: CCCCCCSc1nc(-c2ccc(C)cc2)nn1C(=O)N(C)c1ccccc1
Out: 7.91

In: Dear colleague, I am looking for the recorded pIC50 of the following compound: Cc1c(C(C)C)c(=O)on1C(=O)N1CCC[C@@H](C)C1
Out: 7.70

In: Dear colleague, I am looking for the recorded pIC50 of the following compound: Cc1c(C)n(C(=O)N2CCCCC2)oc1=O
Out: 7.89

====

- Tested Target: Hormone-sensitive lipase (Rattus norvegicus)
- Sequence (whole entry): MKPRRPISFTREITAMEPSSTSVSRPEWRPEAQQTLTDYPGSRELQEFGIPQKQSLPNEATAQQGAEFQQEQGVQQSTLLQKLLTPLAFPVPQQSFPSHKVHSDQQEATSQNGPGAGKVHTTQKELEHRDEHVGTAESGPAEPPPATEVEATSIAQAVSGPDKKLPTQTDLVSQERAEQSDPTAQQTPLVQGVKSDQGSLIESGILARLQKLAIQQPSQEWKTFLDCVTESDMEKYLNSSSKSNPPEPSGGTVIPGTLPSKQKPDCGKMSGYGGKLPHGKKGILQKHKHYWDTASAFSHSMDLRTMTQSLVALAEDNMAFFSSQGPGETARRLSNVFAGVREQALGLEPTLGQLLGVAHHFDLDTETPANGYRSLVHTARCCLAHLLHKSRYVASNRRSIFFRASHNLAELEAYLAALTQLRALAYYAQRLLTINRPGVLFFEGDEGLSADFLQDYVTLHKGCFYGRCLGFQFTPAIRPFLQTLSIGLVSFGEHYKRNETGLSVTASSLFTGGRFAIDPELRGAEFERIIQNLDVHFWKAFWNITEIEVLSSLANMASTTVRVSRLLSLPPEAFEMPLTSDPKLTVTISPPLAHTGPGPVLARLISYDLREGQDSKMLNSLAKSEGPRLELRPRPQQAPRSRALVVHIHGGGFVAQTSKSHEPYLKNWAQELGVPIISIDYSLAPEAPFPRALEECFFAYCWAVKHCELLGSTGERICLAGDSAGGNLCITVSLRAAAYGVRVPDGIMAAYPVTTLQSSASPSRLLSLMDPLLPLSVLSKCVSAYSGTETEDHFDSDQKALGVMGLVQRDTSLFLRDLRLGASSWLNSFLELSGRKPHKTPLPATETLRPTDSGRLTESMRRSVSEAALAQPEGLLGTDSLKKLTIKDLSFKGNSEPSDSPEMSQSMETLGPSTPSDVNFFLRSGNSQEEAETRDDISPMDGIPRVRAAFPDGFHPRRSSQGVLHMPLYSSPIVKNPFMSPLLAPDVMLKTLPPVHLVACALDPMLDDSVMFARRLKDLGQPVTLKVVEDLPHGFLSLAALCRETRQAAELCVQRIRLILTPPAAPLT
- Protocol: Inhibition of HSL in Wistar rat isolated fat cells at 10 uM by spectrophotometric assay
Quantity Name: inhibition (%)
Answer with a number only, understood to be in %.

Worked cases, answers included:
COC(=O)Cc1nc2ccc(OC)cc2nc1O    15
O=C(NC(Cc1ccccc1)C(=O)O)C(=O)c1c[nH]c2ccc(Cl)cc12 (stereo not given)    26
O=C(/C(=N/c1ccccc1)NO)c1ccccc1    23
Cc1ncc(COCc2ccccc2)c(CO)c1OCc1ccccc1    31
CCC(CCC#N)C(=O)c1ccc(C)o1 (stereo not given)    14
COC(=O)c1ccc(C)c(NS(=O)(=O)c2ccc3c(c2)c(=O)sn3C)c1    24
COc1ccc2cc([C@H](C)C(=O)O)ccc2c1    64
COC1=CC(=O)OC(C)(c2ccccc2)C1 (stereo not given)    24

In: Dear colleague, I am looking for the recorded inhibition of the following compound: COC(=O)c1nnn(CCc2c[nH]c3ccccc23)c1C(=O)OC
Out: 52

In: Dear colleague, I am looking for the recorded inhibition of the following compound: O=C(CC(=O)c1ccccc1)c1ccccc1
Out: 28
